Here, each record is paired with measured combination Emax data.
# Tested on: SW1783 (Low Grade Glioma)
# METHOD SUMMARY: combination Emax (second highest fraction inhibited in the dose matrix, 72 h); higher = more inhibition; extreme values may be limits of the assay
Give only the figure.

Provide combination Emax value for the following compound: CC1(C)CCC(CN2CCN(c3ccc(C(=O)NS(=O)(=O)c4ccc(NCC5CCOCC5)c([N+](=O)[O-])c4)c(Oc4cnc5[nH]ccc5c4)c3)CC2)=C(c2ccc(Cl)cc2)C1 [Venetoclax] + Cc1cc2ncnn2cc1Nc1ncc2c(n1)n(C1CCOCC1)c(=O)n2C [AZD7648] (first compound max 1 µM, 7x7, partner max 10 µM)
0.237

###

Recorded Bliss excess, one value per entry.
# Test system: CTV-1 (T-Lymphoblastic Leukemia)
# METHOD SUMMARY: Bliss excess, mean over the matrix (fraction); higher = more synergy

The examples below pair each entry with its known result.
INSERT INTO measurements (compound, value) VALUES
  ('CC(=O)c1c(C)c2cnc(Nc3ccc(N4CCNCC4)cn3)nc2n(C2CCCC2)c1=O [Palbociclib] + Cc1c2c(nn1C)CSCc1cc(n(C)n1)CSc1cc(c3ccccc3c1)OCCCc1c(C(=O)O)n(C)c3c-2c(Cl)ccc13 [AZD5991] (first compound max 10 µM, 7x7, partner max 1 µM)', -0.0096),
  ('COc1cccc(OCCCN)c1-c1cc(Nc2cnc(C#N)cn2)n[nH]1 [Prexasertib] + O=C(c1cc(Cc2n[nH]c(=O)c3ccccc23)ccc1F)N1CCN(C(=O)C2CC2)CC1 [Olaparib] (first compound max 1 µM, 7x7, partner max 10 µM)', -0.122);

Enter Bliss excess (test system CTV-1 (T-Lymphoblastic Leukemia)) for COc1nnc2ccc(N3CCC(c4ccc(OCCN5CCN(C)C(=O)[C@H]5C)cc4)CC3)nn12 [AZD5153] + C[C@@H]1COCCN1C2=NC(=NC(=C2)C3(CC3)[S@](=N)(=O)C)C4=C5C=CNC5=NC=C4 [AZD6738] (first compound max 1 µM, 7x7, partner max 10 µM)
0.0194

###

# Tested on: OCI-AML2 (Acute Myeloid Leukemia)
# METHOD SUMMARY: Bliss excess, mean over the matrix (fraction); higher = more synergy
# Bliss excess >= 0.02 gives Yes, anything below gives No

Worked cases, answers included:
INSERT INTO measurements (molecule, label_class) VALUES
  ('O=C(c1cc(Cc2n[nH]c(=O)c3ccccc23)ccc1F)N1CCN(C(=O)C2CC2)CC1 [Olaparib] + CN(CC[C@H](CSC1=CC=CC=C1)NC2=C(C=C(C=C2)S(=O)(=O)NC(=O)C3=CC=C(C=C3)N4CCC(CC4)[C@H](C5=CC=CC=C5C6=CC=C(C=C6)Cl)O)S(=O)(=O)C(F)(F)F)CCO [AZD4320] (first compound max 10 µM, 7x7, partner max 1 µM)', 'Yes'),
  ('C=CCn1c(=O)c2cnc(Nc3ccc(N4CCN(C)CC4)cc3)nc2n1-c1cccc(C(C)(C)O)n1 [AZD1775] + O=C(c1cc(Cc2n[nH]c(=O)c3ccccc23)ccc1F)N1CCN(C(=O)C2CC2)CC1 [Olaparib] (first compound max 1 µM, partner max 10 µM)', 'Yes'),
  ('Cc1nc(Nc2ncc(C(=O)Nc3c(C)cccc3Cl)s2)cc(N2CCN(CCO)CC2)n1 [Dasatinib] + CC(=O)Nc1cccc(-n2c(=O)n(C3CC3)c(=O)c3c(Nc4ccc(I)cc4F)n(C)c(=O)c(C)c32)c1 [Trametinib] (first compound max 2 µM, 7x7, partner max 1 µM)', 'Yes'),
  ('CS(=O)(=O)CCNCc1ccc(-c2ccc3ncnc(Nc4ccc(OCc5cccc(F)c5)c(Cl)c4)c3c2)o1 [Lapatinib] + C[C@@H](Oc1cc(-c2cnn(C3CCNCC3)c2)cnc1N)c1c(Cl)ccc(F)c1Cl [Crizotinib] (first compound max 10 µM, 7x7, partner max 10 µM)', 'No'),
  ('COc1cc2ncnc(Nc3ccc(F)c(Cl)c3)c2cc1OCCCN1CCOCC1 [Gefitinib] + CC(C)n1c(=O)n(C)c2cnc3cc(F)c(-c4ccc(OCCCN5CCCCC5)nc4)cc3c21 [AZD1390] (first compound max 10 µM, 7x7, partner max 0.3 µM)', 'No'),
  ('COc1nnc2ccc(N3CCC(c4ccc(OCCN5CCN(C)C(=O)[C@H]5C)cc4)CC3)nn12 [AZD5153] + Cc1c2c(nn1C)CSCc1cc(n(C)n1)CSc1cc(c3ccccc3c1)OCCCc1c(C(=O)O)n(C)c3c-2c(Cl)ccc13 [AZD5991] (first compound max 1 µM, 7x7, partner max 1 µM)', 'No');

# check: Bliss excess of CN(CCO)CC[C@H](CSc1ccccc1)Nc1ccc(S(=O)(=O)NC(=O)c2ccc(N3CCC([C@@H](O)c4ccccc4-c4ccc(Cl)cc4)CC3)cc2)cc1S(=O)(=O)C(F)(F)F [AZD4320] + CCN(CCO)CCCOc1ccc2c(Nc3cc(CC(=O)Nc4cccc(F)c4)[nH]n3)ncnc2c1 [AZD2811] (first compound max 1 µM, 7x7, partner max 1 µM) is greater than or equal to 0.02
No

Could you verify whether the entry Cc1nc(-c2cn3c(n2)-c2ccc(-c4cnn(C(C)(C)C(N)=O)c4)cc2OCC3)n(C(C)C)n1 [Taselisib] + O=C(Nc1ccc2[nH]nc(-c3ccncc3)c2c1)[C@@H]1CCN(CC(=O)N2CCN(c3ccc(-c4ncccn4)cc3)CC2)C1 [SCH772984] (first compound max 10 µM, 7x7, partner max 5 µM) shows Bliss excess of no less than 0.02?
Yes

Is Bliss excess for Cc1c2c(nn1C)CSCc1cc(n(C)n1)CSc1cc(c3ccccc3c1)OCCCc1c(C(=O)O)n(C)c3c-2c(Cl)ccc13 [AZD5991] + C[C@@H](Nc1cc(F)cc(F)c1)c1cc(C(=O)N(C)C)cc2c(=O)cc(N3CCOCC3)oc12 [AZD8186] (first compound max 1 µM, 7x7, partner max 3 µM) at or above 0.02?
No

Check the entry CN(C)CCCOc1ccc(-c2ccc3ncc4c(c3c2)n(C2CCOCC2)c(=O)n4C)cn1 [AZD0156] + C=CCn1c(=O)c2cnc(Nc3ccc(N4CCN(C)CC4)cc3)nc2n1-c1cccc(C(C)(C)O)n1 [AZD1775] (first compound max 1 µM, partner max 1 µM) : does Bliss excess equal or exceed 0.02?
No

Confirm if Bliss excess reported for the molecule N#Cc1cnc(Nc2cc(NC[C@H]3CNCCO3)c(C(F)(F)F)cn2)cn1 [SRA737] + O=c1[nH]cc(F)c(=O)[nH]1 [5-Fluorouracil] (first compound max 10 µM, 7x7, partner max 20 µM) is 0.02 or above.
Yes

In plain terms: is recorded Bliss excess at least 0.02 for COc1cccc(OCCCN)c1-c1cc(Nc2cnc(C#N)cn2)n[nH]1 [Prexasertib] + C=CCn1c(=O)c2cnc(Nc3ccc(N4CCN(C)CC4)cc3)nc2n1-c1cccc(C(C)(C)O)n1 [AZD1775] (first compound max 1 µM, partner max 1 µM) ?
Yes

Record COc1cccc2c1C(=O)c1c(O)c3c(c(O)c1C2=O)C[C@@](O)(C(=O)CO)C[C@@H]3O[C@H]1C[C@H](N)[C@H](O)[C@H](C)O1 [Doxorubicin] + Cc1cc2ncnn2cc1Nc1ncc2c(n1)n(C1CCOCC1)c(=O)n2C [AZD7648] (first compound max 1 µM, 7x7, partner max 10 µM) ; criterion: Bliss excess no lower than 0.02. Met?
No

###

# Tested on: JiyoyeP-2003 (Burkitt's Lymphoma)
# METHOD SUMMARY: Bliss excess, mean over the matrix (fraction); higher = more synergy
PARAMETER: Bliss excess
// print number alone

INSERT INTO measurements (molecule, parameter, value) VALUES
  ('COc1cccc(OCCCN)c1-c1cc(Nc2cnc(C#N)cn2)n[nH]1 [Prexasertib] + C=CCn1c(=O)c2cnc(Nc3ccc(N4CCN(C)CC4)cc3)nc2n1-c1cccc(C(C)(C)O)n1 [AZD1775] (first compound max 1 µM, partner max 1 µM)', 'Bliss excess', 0.0839),
  ('Cn1cnc2c(F)c(Nc3ccc(Br)cc3Cl)c(C(=O)NOCCO)cc21 [Selumetinib] + CCN(CCO)CCCOc1ccc2c(Nc3cc(CC(=O)Nc4cccc(F)c4)[nH]n3)ncnc2c1 [AZD2811] (first compound max 10 µM, 7x7, partner max 1 µM)', 'Bliss excess', -0.0053),
  ('Cc1cc2ncnn2cc1Nc1ncc2c(n1)n(C1CCOCC1)c(=O)n2C [AZD7648] + CCN(CCO)CCCOc1ccc2c(Nc3cc(CC(=O)Nc4cccc(F)c4)[nH]n3)ncnc2c1 [AZD2811] (first compound max 10 µM, 7x7, partner max 1 µM)', 'Bliss excess', 0.0829),
  ('CN(CCO)CC[C@H](CSc1ccccc1)Nc1ccc(S(=O)(=O)NC(=O)c2ccc(N3CCC([C@@H](O)c4ccccc4-c4ccc(Cl)cc4)CC3)cc2)cc1S(=O)(=O)C(F)(F)F [AZD4320] + C[C@@H](Nc1cc(F)cc(F)c1)c1cc(C(=O)N(C)C)cc2c(=O)cc(N3CCOCC3)oc12 [AZD8186] (first compound max 1 µM, 7x7, partner max 3 µM)', 'Bliss excess', 0.0195),
  ('Cc1c2c(nn1C)CSCc1cc(n(C)n1)CSc1cc(c3ccccc3c1)OCCCc1c(C(=O)O)n(C)c3c-2c(Cl)ccc13 [AZD5991] + C[C@@H]1COCCN1C2=NC(=NC(=C2)C3(CC3)[S@](=N)(=O)C)C4=C5C=CNC5=NC=C4 [AZD6738] (first compound max 1 µM, 7x7, partner max 10 µM)', 'Bliss excess', 0.0159),
  ('CN(C)CCCOc1ccc(-c2ccc3ncc4c(c3c2)n(C2CCOCC2)c(=O)n4C)cn1 [AZD0156] + O=C(c1cc(Cc2n[nH]c(=O)c3ccccc23)ccc1F)N1CCN(C(=O)C2CC2)CC1 [Olaparib] (first compound max 3 µM, partner max 3 µM)', 'Bliss excess', 0.007);

Report measured Bliss excess; entry is C[C@@H](c1ccc2nccn2c1)n1nnc2ncc(-c3cnn(C)c3)nc21 [Savolitinib] + CN(CC[C@H](CSC1=CC=CC=C1)NC2=C(C=C(C=C2)S(=O)(=O)NC(=O)C3=CC=C(C=C3)N4CCC(CC4)[C@H](C5=CC=CC=C5C6=CC=C(C=C6)Cl)O)S(=O)(=O)C(F)(F)F)CCO [AZD4320] (first compound max 1 µM, 7x7, partner max 1 µM)
-0.0082

Name the recorded Bliss excess of the molecule listed here: CCc1c2c(nc3ccc(O)cc13)-c1cc3c(c(=O)n1C2)COC(=O)[C@]3(O)CC [SN-38] + O=C(c1cc(Cc2n[nH]c(=O)c3ccccc23)ccc1F)N1CCN(C(=O)C2CC2)CC1 [Olaparib] (first compound max 0.3 µM, 7x7, partner max 10 µM)
0.104

Identify Bliss excess associated with the molecule COc1nnc2ccc(N3CCC(c4ccc(OCCN5CCN(C)C(=O)[C@H]5C)cc4)CC3)nn12 [AZD5153] + Cn1cnc2c(F)c(Nc3ccc(Br)cc3Cl)c(C(=O)NOCCO)cc21 [Selumetinib] (first compound max 1 µM, 7x7, partner max 10 µM)
-0.0117

Source listed as the supplement of paper PMC11061612.
